- Study System: T1, recombinant human VEGF165 (human, UniProt P15692-4 27-191, biotinylated in the competition assays)
- T1 construct: Bought protein; also called hVEGF165; rhVEGF165
- T1 sequence (P15692 other isoform, or with tags, fused parts or gaps): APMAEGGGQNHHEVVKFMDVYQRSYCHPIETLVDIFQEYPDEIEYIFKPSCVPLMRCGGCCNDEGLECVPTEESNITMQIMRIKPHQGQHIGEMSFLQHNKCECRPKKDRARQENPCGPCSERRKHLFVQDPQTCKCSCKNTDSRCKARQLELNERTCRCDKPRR
- Assay Info: ELISA, hVEGF165/hVEGFR1-Fc competition
Endpoint Label: IC50 (nM)
Give just the number in nM; leave the unit off.

Reference set, count: 3
INSERT INTO results (binder, u, quantitative_result) VALUES
  ('VEGFBII021 (VHH, not shown: small tags and cut ends, Bivalent (heterodimeric) anti-VEGF VHH; also called VEGFBII23B04-40GS-5B05) EVQLVESGGGLVQTGDSLRLSCEVSGRTFSSYSMGWFRQAQGKEREFVVAISKGGYKYDSVSLEGRFTISKDNAKNTVYLQINSLKPEDTAVYYCASSRAYGSSRLRLADTYEYWGQGTQVTVSSGGGGSGGGGSGGGGSGGGGSGGGGSGGGGSGGGGSGGGGSEVQLVESGGGLVQPGGSLRLSCVASGIRFMSMAWYRQAPGKHRELVARISSGGTTAYVDSVKGRFTISRDNSKNTVYLQMNSLKAEDTAVYYCNTFSSRPNPWGAGTQVTVSS', 'nM', 0.254),
  ('VEGFBII010 (VHH, not shown: small tags and cut ends, Homodimeric bivalent anti-VEGF VHH; also called VEGFBII23B04-35GS-23B04) EVQLVESGGGLVQTGDSLRLSCEVSGRTFSSYSMGWFRQAQGKEREFVVAISKGGYKYDSVSLEGRFTISKDNAKNTVYLQINSLKPEDTAVYYCASSRAYGSSRLRLADTYEYWGQGTQVTVSSGGGGSGGGGSGGGGSGGGGSGGGGSGGGGSGGGGSEVQLVESGGGLVQTGDSLRLSCEVSGRTFSSYSMGWFRQAQGKEREFVVAISKGGYKYDSVSLEGRFTISKDNAKNTVYLQINSLKPEDTAVYYCASSRAYGSSRLRLADTYEYWGQGTQVTVSS', 'nM', 0.0735),
  ('VEGFBII024 (VHH, not shown: small tags and cut ends, Bivalent anti-VEGF VHH; also called VEGFBII23B04-40GS-86H09) EVQLVESGGGLVQTGDSLRLSCEVSGRTFSSYSMGWFRQAQGKEREFVVAISKGGYKYDSVSLEGRFTISKDNAKNTVYLQINSLKPEDTAVYYCASSRAYGSSRLRLADTYEYWGQGTQVTVSSGGGGSGGGGSGGGGSGGGGSGGGGSGGGGSGGGGSGGGGSEVQLVESGGGLVQAGGSLRLSCTASGSAFKSYRMGWFRRTPGKEDEFVASISWTYGSTFYADSVKGRFTMSRDKAKNAGYLQMNSLKPEDTALYYCAAGAQSDRYNIRSYDYWGQGTQVTVSS', 'nM', 0.326);

From here, focus on the item given below.
Qu. Request the reported IC50 associated with VEGFBII022 (VHH, not shown: small tags and cut ends, Bivalent (heterodimeric) anti-VEGF VHH; also called VEGFBII23B04-9GS-5B05) EVQLVESGGGLVQTGDSLRLSCEVSGRTFSSYSMGWFRQAQGKEREFVVAISKGGYKYDSVSLEGRFTISKDNAKNTVYLQINSLKPEDTAVYYCASSRAYGSSRLRLADTYEYWGQGTQVTVSSGGGGSGGGSEVQLVESGGGLVQPGGSLRLSCVASGIRFMSMAWYRQAPGKHRELVARISSGGTTAYVDSVKGRFTISRDNSKNTVYLQMNSLKAEDTAVYYCNTFSSRPNPWGAGTQVTVSS
Ans. 0.225
